# System: CCRIS mutagenicity, Ames/micronucleus/aberration tests
# Protocol Summary: CCRIS mutagenicity studies
# Condition Set: Test System: AMES SALMONELLA TYPHIMURIUM; Strain/Indicator: TA100; Metabolic Activation: RAT, LIVER, MICROSOMES, PHENOBARBITAL; Method: STANDARD PLATE
Active and inactive are the calls of the source. The rule behind the calls is not given here.
Metric Name: mutagenic call

INSERT INTO assay_data (compound, recorded_result) VALUES
  ('CC(Br)CBr (configuration not stated)', 'active; positive'),
  ('C=C(Br)CBr', 'active; positive'),
  ('COc1c(C)c2c(c(O)c1C/C=C(\C)CCC(=O)O)C(=O)OC2', 'inactive; negative'),
  ('O=P(OC(CCl)CCl)(OC(CCl)CCl)OC(CCl)CCl', 'active; positive'),
  ('COc1ccc2c(OC)c3ccoc3nc2c1OC', 'active; positive');

[Q] Answer with the recorded mutagenic call for the compound listed here: O=C1C=CCO1
[A] inactive; negative

[Q] Answer with the recorded mutagenic call for the compound listed here: C[C@@H]1Cc2c(Cl)cc(C(=O)NC(Cc3ccccc3)C(=O)O)c(O)c2C(=O)O1 (some centres not stated)
[A] active; positive

---

# Tested on: CCRIS mutagenicity, Ames/micronucleus/aberration tests
# Protocol Summary: CCRIS mutagenicity studies
# Condition Set: Test System: MOUSE LYMPHOMA; Strain/Indicator: L5178Y (TK+/TK-); Metabolic Activation: RAT, LIVER, S-9, AROCLOR 1254; Method: SUSPENSION/PLATE
The source made the active and inactive calls. How the calls were made is not given here.
Parameter call: string, one of YES (active), NO (inactive)

[Q] Could you please tell me the result logged for c1ccc2cc3c(ccc4ccccc43)cc2c1 in this assay?
[A] YES

[Q] Could you please tell me the result logged for [Cl][Fe]([Cl])[Cl] in this assay?
[A] YES

[Q] Could you please tell me the result logged for CCC(C)ON=O (stereo unspecified) in this assay?
[A] YES

[Q] Could you please tell me the result logged for O=C/C=C/c1ccc([N+](=O)[O-])cc1 in this assay?
[A] NO

[Q] Could you please tell me the result logged for Clc1cc2c(cc1Cl)Oc1cc(Cl)c(Cl)cc1O2 in this assay?
[A] NO

[Q] Could you please tell me the result logged for C=Cc1ccc(O)c(OC)c1 in this assay?
[A] NO

[Q] Could you please tell me the result logged for CC(N)=S in this assay?
[A] YES

[Q] Could you please tell me the result logged for CCN(CC)c1ccc2nc3ccc(=[N+](CC)CC)cc-3oc2c1 in this assay?
[A] YES

[Q] Could you please tell me the result logged for CCCCON=O in this assay?
[A] YES

[Q] Could you please tell me the result logged for Cc1c(O)c(=O)ccn1C in this assay?
[A] YES

[Q] Could you please tell me the result logged for C=Cc1ccc(N)cc1 in this assay?
[A] NO

[Q] Could you please tell me the result logged for NC(=O)/N=N/C(N)=O in this assay?
[A] NO

[Q] Could you please tell me the result logged for c1ccc2c(c1)CCCC2 in this assay?
[A] YES

[Q] Could you please tell me the result logged for CN(C)c1ccc(N=Nc2ccc3ccccc3c2)cc1 in this assay?
[A] YES

[Q] Could you please tell me the result logged for ClCc1cccnc1 in this assay?
[A] YES

[Q] Could you please tell me the result logged for CCCCCON=O in this assay?
[A] NO

[Q] Could you please tell me the result logged for C=CC[Si](C)(C)C in this assay?
[A] NO

[Q] Could you please tell me the result logged for C[C@H](CCC(=O)O)[C@H]1CC[C@H]2[C@@H]3CC[C@@H]4C[C@H](O)CC[C@]4(C)[C@H]3CC[C@]12C in this assay?
[A] NO

[Q] Could you please tell me the result logged for CSC(C)(C)/C=N/O in this assay?
[A] NO

[Q] Could you please tell me the result logged for CN(C)c1ccc(Cc2ccc(N(C)C)cc2)cc1 in this assay?
[A] YES

[Q] Could you please tell me the result logged for C1CCNCC1 in this assay?
[A] NO

[Q] Could you please tell me the result logged for Nc1ccn([C@H]2CC[C@@H](CO)O2)c(=O)n1 in this assay?
[A] NO

[Q] Could you please tell me the result logged for CCOCCc1c(-c2ccccc2)nc(N)n2ncnc12 in this assay?
[A] NO

[Q] Could you please tell me the result logged for CN1C[C@H](C(=O)N[C@]2(C)O[C@@]3(O)[C@@H]4CCCN4C(=O)[C@H](Cc4ccccc4)N3C2=O)C=C2c3cccc4[nH]cc(c34)C[C@H]21 in this assay?
[A] NO

[Q] Could you please tell me the result logged for c1cscn1 in this assay?
[A] NO

[Q] Could you please tell me the result logged for O=C(O)CCc1ccccc1 in this assay?
[A] NO

These entries and their values trace back to PubChem BioAssay AID1259407.
